Biological target: T1, PUF4 RNA-binding domain (Saccharomyces cerevisiae, UniProt P25339 537-888)
T1 sequence: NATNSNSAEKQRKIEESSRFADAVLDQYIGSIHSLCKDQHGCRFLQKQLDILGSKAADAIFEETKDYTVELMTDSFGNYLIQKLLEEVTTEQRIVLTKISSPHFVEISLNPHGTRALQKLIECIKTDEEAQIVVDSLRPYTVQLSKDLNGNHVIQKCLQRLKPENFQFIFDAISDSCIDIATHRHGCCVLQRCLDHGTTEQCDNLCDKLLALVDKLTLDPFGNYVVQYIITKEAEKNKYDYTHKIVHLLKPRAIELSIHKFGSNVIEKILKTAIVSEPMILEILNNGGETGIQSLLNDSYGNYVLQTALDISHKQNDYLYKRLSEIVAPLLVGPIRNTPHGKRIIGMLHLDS
Assay: Mg; RNA-MaP; 20 mM Na-HEPES pH 7.4, 30 mM KOAc, 0.75 mM MgCl2, 0.1% Tween-20, 5% glycerol, 0.1 mg/mL BSA, 2 mM DTT; 25 C; 0.0125-409.6 nM protein
Details: tags: N-His6-TEV cleaved; C-SNAP kept, Cy3B-labelled; label: tethered on chip by stalled RNA polymerase
measurement_kind: Kd (nM)
Note: unit nM is implicit; provide only the numeric part.

query: Param item = UCUCUUGCACACUAUUAUAUCUCUU (ssRNA) [Id_ii_S1_P4E.4_K4.3_C4.2_[C-2G]_[T-1C]_H4.3_A4.1_F4.1_T4.2_[G10T]_[T11A]] ; retrieve measured Kd.
result: 351

query: And the next one, UCUCUUCUUGUCAUAUAUAUCUCUU (ssRNA) [Ie_S1_P3E.2_K3.1_C3.2_H3.1_[+3C]_A3.1_F3.1_T3.2] ?
result: 67

query: Do the same for UCUCUUUGUGUUACUAUCUCUU (ssRNA) [Ib_S1_P5E.1_K5.1_C5.1_H5.1_[A4G]_A5.1_F5.1_[T8C]_T5.1] please
result: 51.5

These measurements were taken from paper PMC9352680.
